Recorded values, source patent US20230416248A1.

Entries and their measured Ratio* follow.
- target under test: BRM (Homo sapiens, UniProt P51531)
- Construct: made in house; host or cells: High Five insect cells
- Sequence (P51531 whole entry): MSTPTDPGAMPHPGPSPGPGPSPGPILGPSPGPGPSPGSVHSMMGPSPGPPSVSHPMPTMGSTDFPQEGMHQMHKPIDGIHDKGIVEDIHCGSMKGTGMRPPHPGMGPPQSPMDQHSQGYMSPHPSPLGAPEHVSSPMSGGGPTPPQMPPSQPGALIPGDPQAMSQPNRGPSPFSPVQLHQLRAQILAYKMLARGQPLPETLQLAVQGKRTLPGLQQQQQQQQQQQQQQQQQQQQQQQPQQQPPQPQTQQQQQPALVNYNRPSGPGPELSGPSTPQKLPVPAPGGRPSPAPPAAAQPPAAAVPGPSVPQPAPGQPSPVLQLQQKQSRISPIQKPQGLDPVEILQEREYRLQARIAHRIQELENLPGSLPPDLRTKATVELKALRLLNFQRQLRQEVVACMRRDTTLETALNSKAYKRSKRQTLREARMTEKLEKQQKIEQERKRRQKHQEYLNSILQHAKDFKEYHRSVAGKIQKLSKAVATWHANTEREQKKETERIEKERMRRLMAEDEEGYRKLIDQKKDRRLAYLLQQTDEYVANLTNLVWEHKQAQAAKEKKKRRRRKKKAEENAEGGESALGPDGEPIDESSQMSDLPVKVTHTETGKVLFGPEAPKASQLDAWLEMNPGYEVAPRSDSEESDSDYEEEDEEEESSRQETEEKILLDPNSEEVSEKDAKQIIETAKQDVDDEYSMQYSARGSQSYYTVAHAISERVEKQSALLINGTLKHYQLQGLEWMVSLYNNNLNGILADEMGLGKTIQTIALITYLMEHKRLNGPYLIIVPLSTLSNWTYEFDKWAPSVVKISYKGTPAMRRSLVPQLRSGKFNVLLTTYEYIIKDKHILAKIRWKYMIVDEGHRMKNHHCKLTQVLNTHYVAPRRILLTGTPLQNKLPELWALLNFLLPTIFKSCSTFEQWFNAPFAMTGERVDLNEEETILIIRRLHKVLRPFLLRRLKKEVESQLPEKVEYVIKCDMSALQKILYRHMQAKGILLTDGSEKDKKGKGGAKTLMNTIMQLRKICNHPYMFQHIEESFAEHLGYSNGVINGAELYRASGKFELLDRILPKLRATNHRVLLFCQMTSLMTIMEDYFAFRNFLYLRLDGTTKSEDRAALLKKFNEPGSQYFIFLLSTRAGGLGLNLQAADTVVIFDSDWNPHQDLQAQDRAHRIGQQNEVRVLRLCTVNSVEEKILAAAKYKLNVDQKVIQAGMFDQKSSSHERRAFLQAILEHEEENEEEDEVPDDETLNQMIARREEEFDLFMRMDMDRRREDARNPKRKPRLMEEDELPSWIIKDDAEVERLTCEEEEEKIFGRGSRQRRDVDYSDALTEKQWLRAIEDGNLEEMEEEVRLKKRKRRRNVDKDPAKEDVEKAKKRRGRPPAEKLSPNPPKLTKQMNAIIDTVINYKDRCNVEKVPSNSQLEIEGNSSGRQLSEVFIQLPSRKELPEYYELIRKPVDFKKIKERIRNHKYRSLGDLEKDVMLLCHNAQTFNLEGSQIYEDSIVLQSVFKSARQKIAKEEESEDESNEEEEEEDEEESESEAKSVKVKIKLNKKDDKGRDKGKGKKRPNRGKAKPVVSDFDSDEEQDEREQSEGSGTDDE
- method: ATPase catalytic activity of BRM, ADP-Glo in vitro biochemical assay
- particulars: ratio BRG1 IC50 / BRM IC50
Number, no unit, nothing else.

>  <compound>
O=C(NCc1cc2nc(N3CCCc4cccc(Cl)c43)ccc2cn1)c1ccc2c(c1)S(=O)(=O)CCOC2

>  <value type>
Ratio*

>  <assay result>
3.42

$$$$
>  <compound>
O=C(NCc1cc2nc(N3CCCc4ncc(C5CC5)nc43)ccc2cn1)c1ccc2c(c1)S(=O)(=O)CCOC2

>  <value type>
Ratio*

>  <assay result>
15.49

$$$$
>  <compound>
O=C(NCc1cc2nc(N3CCCc4ccc(OCC5CCOC5)cc43)ccc2cn1)c1ccc2c(c1)S(=O)(=O)CCOC2 (centres unmarked)

>  <value type>
Ratio*

>  <assay result>
9.97

$$$$
>  <compound>
O=C(NCc1cc2cc(N3CCOc4cc(N5CCOCC5)cnc43)ccc2cn1)c1ccc2c(c1)S(=O)(=O)CCOC2

>  <value type>
Ratio*

>  <assay result>
5.90

$$$$
>  <compound>
O=C(NCc1cc2cc(N3CCOc4cc(C5CC5)cnc43)ncc2cn1)c1ccc2c(c1)S(=O)(=O)CCOC2

>  <value type>
Ratio*

>  <assay result>
1.00

$$$$

QUERY: So what does the record say about Ratio* for O=C(NCc1cc2nc(N3CCOc4ccc(C(F)CF)nc43)ccc2cn1)c1ccc2c(c1)S(=O)(=O)CCOC2 (centres unmarked) ?
RESULT: 38.76

QUERY: So what does the record say about Ratio* for `CN(C)c1cnc2c(c1)OCCN2c1ccc2cnc(CNC(=O)c3ccc4c(c3)S(=O)(=O)CCOC4)cc2n1` ?
RESULT: 8.52

QUERY: So what does the record say about Ratio* for `O=C(NCc1cc2nc(-c3ccc(OC(F)F)cn3)ccc2cn1)c1ccc2c(c1)S(=O)(=O)CCOC2` ?
RESULT: 8.25

QUERY: So what does the record say about Ratio* for `C[C@H]1C[C@@H]1c1ccc2c(n1)N(c1ccc3cnc(CNC(=O)c4ccc5c(c4)S(=O)(=O)CCOC5)cc3n1)CCO2` ?
RESULT: 22.29

QUERY: So what does the record say about Ratio* for `Cc1ccc(-c2ccc3cnc(CNC(=O)c4ccc5c(c4)S(=O)(=O)CCOC5)cc3n2)c(=O)n1C` ?
RESULT: 6.49

QUERY: So what does the record say about Ratio* for `O=C(NCc1cc2nc(N3CCCc4cc(C5CC5)ncc43)ccc2cn1)c1ccc2c(c1)S(=O)(=O)CCOC2` ?
RESULT: 10.95

QUERY: So what does the record say about Ratio* for COCC1CN(c2ccc3cnc(CNC(=O)c4ccc5c(c4)S(=O)(=O)CCOC5)cc3n2)c2ccccc2O1 (centres unmarked) ?
RESULT: 2.75
